FYI, the data here is from patent US20240025884A1.

This section lists pIC50 readings for GCN2 (Homo sapiens (Human), UniProt Q9P2K8).
pIC50: −log10 of the molar value.
value-kind: pIC50

In [3]: df
Out[3]:
                                    compound      measured
 0  Cc1cnc(Nc2cc(C)n(C)n2)nc1-c1c[nH]c2c(NC(=O)CN3CCC(N4CCOCC4)CC3)cccc12  6.00 to 7.00
 1  Cc1cnc(Nc2cc(C)n(C)n2)nc1-c1c[nH]c2c(N3Cc4c(NC(=O)C5CCC(=O)N5)cccc4C3=O)cccc12 (centres unmarked)        > 8.00
 2  Cc1cnc(Nc2cc(C)n(C)n2)nc1-c1c[nH]c2c(N3Cc4c(Br)ccnc4C3=O)cccc12        > 8.00
 3  Cc1cnc(Nc2cc(C)n(C)n2)nc1-c1c[nH]c2c(NC(=O)CN3CC[C@H](Oc4ccnc(Cl)c4)C3)cccc12  7.00 to 8.00
 4  CCN(CC)C(=O)/C=C/c1cccc2c1CN(c1cccc3c(-c4nc(Nc5cc(C)n(C)n5)ncc4C)c[nH]c13)C2=O        > 8.00
 5  CNc1ccnc(O[C@H]2CCN(CC(=O)Nc3cccc4c(-c5nc(Nc6cc(C)n(C)n6)ncc5C)c[nH]c34)C2)n1        > 8.00
 6  CCC(C)Nc1nccc(O[C@H]2CCN(CC(=O)Nc3cccc4c(-c5nc(Nc6cc(C)n(C)n6)ncc5C)c[nH]c34)C2)n1 (some centres unmarked)        > 8.00
 7  Cc1cnc(Nc2cc(C)n(C)n2)nc1-c1c[nH]c2c(N3Cc4c(NC(=O)N5CCNC5=O)cccc4C3=O)cccc12        > 8.00
 8  Cc1cnc(Nc2cc(C)n(C)n2)nc1-c1c[nH]c2c(N3Cc4c(NC(=O)c5cc(O)ncn5)cccc4C3=O)cccc12        > 8.00
 9  Cc1cnc(Nc2cc(C)n(C)n2)nc1-c1c[nH]c2c(N3Cc4c(NC(=O)c5ccoc5)cccc4C3=O)cccc12  7.00 to 8.00
10  Cc1cnc(Nc2cc(C)n(C)n2)nc1-c1c[nH]c2c(N3Cc4c(NC(=O)c5ccon5)cccc4C3=O)cccc12  7.00 to 8.00
11  Cc1cnc(Nc2cc(C)n(C)n2)nc1-c1c[nH]c2c(N3Cc4c(cccc4-c4ccc(C(N)=O)nc4)C3=O)cccc12        > 8.00
12  Cc1cnc(Nc2cc(C)n(C)n2)nc1-c1c[nH]c2c(N3Cc4c(cccc4-c4cccnc4F)C3=O)cccc12        > 8.00
13  Cc1cnc(Nc2cc(C)n(C)n2)nc1-c1c[nH]c2c(NC(=O)CN3CC(Oc4ccncn4)C3)cccc12  7.00 to 8.00

* * *

Target: GCN2 (Homo sapiens (Human), UniProt Q9P2K8)
Sequence (Q9P2K8 whole entry): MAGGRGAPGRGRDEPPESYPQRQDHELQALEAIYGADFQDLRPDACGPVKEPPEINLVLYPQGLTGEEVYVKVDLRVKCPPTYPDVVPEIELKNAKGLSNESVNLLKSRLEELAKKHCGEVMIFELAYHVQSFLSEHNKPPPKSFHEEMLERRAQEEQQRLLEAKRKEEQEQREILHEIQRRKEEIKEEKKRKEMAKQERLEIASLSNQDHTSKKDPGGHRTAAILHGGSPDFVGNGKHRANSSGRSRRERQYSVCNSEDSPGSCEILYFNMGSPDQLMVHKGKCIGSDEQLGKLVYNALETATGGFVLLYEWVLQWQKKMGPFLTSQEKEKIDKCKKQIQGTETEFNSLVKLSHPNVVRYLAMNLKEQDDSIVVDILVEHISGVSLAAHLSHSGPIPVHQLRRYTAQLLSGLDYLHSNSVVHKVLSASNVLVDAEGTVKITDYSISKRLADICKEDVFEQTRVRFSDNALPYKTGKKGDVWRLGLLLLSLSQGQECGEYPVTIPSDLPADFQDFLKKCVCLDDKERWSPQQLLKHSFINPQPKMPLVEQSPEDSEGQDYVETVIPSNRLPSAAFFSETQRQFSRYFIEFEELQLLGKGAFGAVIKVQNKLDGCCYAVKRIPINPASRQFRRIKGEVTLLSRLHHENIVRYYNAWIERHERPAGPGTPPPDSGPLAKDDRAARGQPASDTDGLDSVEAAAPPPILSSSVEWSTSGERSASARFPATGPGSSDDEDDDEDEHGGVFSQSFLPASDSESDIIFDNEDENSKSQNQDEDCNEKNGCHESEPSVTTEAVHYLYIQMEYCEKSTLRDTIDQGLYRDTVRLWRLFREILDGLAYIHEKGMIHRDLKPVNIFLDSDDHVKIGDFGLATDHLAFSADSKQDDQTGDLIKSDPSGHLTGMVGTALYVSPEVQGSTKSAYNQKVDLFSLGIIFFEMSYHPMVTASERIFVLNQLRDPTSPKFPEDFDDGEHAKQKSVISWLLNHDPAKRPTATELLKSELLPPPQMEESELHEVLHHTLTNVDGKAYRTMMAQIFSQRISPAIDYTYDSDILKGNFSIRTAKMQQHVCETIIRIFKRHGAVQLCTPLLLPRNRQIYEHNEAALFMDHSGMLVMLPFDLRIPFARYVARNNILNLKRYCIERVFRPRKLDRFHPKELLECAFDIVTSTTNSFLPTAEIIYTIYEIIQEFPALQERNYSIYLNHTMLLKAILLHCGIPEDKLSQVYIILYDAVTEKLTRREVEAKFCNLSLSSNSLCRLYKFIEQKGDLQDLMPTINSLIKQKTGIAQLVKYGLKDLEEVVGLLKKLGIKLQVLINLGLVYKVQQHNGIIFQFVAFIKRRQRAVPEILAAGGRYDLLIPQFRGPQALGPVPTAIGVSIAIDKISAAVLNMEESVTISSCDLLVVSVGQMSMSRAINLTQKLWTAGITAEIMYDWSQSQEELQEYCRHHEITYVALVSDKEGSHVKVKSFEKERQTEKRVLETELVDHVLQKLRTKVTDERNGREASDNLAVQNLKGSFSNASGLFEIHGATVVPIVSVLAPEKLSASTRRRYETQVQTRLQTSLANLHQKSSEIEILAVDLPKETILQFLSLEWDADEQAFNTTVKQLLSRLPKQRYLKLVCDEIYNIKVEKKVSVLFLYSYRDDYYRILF
pIC50: −log10 of the molar value.
Quick list: pIC50 per entry.
value-kind: pIC50

>>> print(df.to_string())
                                         smi  value_kind      measured
 0  Cc1cnc(Nc2cc(C)n(C)n2)nc1-c1c[nH]c2c(N3Cc4c(NC(=O)c5ccccc5)cccc4C3=O)cccc12       pIC50  7.00 to 8.00
 1  Cc1cnc(Nc2cc(C)n(C)n2)nc1-c1c[nH]c2c(N3Cc4ccc(Br)cc4C3=O)cccc12       pIC50  7.00 to 8.00
 2  Cc1cnc(Nc2cc(C)n(C)n2)nc1-c1c[nH]c2c(N3Cc4c(NC(=O)[C@@H]5CCN(C)C5)cccc4C3=O)cccc12       pIC50        > 8.00
 3  CCNc1nc(O[C@H]2CCN(CC(=O)Nc3cccc4c(-c5nc(Nc6cc(C)n(C)n6)ncc5C)c[nH]c34)C2)ncc1F       pIC50        > 8.00
 4  Cc1cnc(Nc2cc(C)n(C)n2)nc1-c1c[nH]c2c(NC(=O)CN3CC[C@H](Oc4ccnc(N(C)C)n4)C3)cccc12       pIC50  7.00 to 8.00
 5  Cc1cnc(Nc2cc(C)n(C)n2)nc1-c1c[nH]c2c(N3Cc4cccc(Br)c4C3=O)cccc12       pIC50  7.00 to 8.00
 6  Cc1cnc(Nc2cc(C)n(C)n2)nc1-c1c[nH]c2c(N3Cc4c(cccc4-c4ccncc4)C3=O)cccc12       pIC50        > 8.00
 7  Cc1cnc(Nc2cc(C)n(C)n2)nc1-c1c[nH]c2c(NC(=O)CN3CC[C@@H](O)C3)cccc12       pIC50  7.00 to 8.00
 8  Cc1cnc(Nc2cc(C)n(C)n2)nc1-c1c[nH]c2c(N3Cc4cccc(N(C)C)c4C3=O)cccc12       pIC50  7.00 to 8.00
 9  Cc1cnc(Nc2cc(C)n(C)n2)nc1-c1c[nH]c2c(N3Cc4ccc(C5=CCNCC5)cc4C3=O)cccc12       pIC50        > 8.00
10  Cc1cnc(Nc2cc(C)n(C)n2)nc1-c1c[nH]c2c(N3Cc4c(cccc4-c4ccc5c(c4)CNC5)C3=O)cccc12       pIC50        > 8.00
11  Cc1cnc(Nc2cc(C)n(C)n2)nc1-c1c[nH]c2c(NC(=O)CN3CC[C@H](Oc4nc(N5CCN(C)CC5)ncc4F)C3)cccc12       pIC50        > 8.00
12  Cc1cnc(Nc2cc(C)n(C)n2)nc1-c1c[nH]c2c(NC(=O)CN3CC[C@H](Oc4ccc(CN5CCN(C)CC5)cc4)C3)cccc12       pIC50  7.00 to 8.00
13  Cc1cnc(Nc2cc(C)n(C)n2)nc1-c1c[nH]c2c(NC(=O)CN3CC[C@H](Oc4cc(C(N)=O)on4)C3)cccc12       pIC50  7.00 to 8.00
14  Cc1cnc(Nc2cc(C)n(C)n2)nc1-c1c[nH]c2c(NC(=O)CN3CC[C@H](Oc4cc[nH]n4)C3)cccc12       pIC50  7.00 to 8.00
15  Cc1cnc(Nc2cc(C)n(C)n2)nc1-c1c[nH]c2c(N3Cc4cc(Br)cnc4C3=O)cccc12       pIC50        > 8.00
16  Cc1cnc(Nc2cc(C)n(C)n2)nc1-c1c[nH]c2c(NC(=O)CN3C[C@@H](F)[C@H](Oc4ccncc4)C3)cccc12       pIC50  7.00 to 8.00
17  Cc1cnc(Nc2cc(C)n(C)n2)nc1-c1c[nH]c2c(NC(=O)CN3CC[C@H](Oc4nccc(C(N)=O)n4)C3)cccc12       pIC50  7.00 to 8.00
18  Cc1cnc(Nc2cc(C)n(C)n2)nc1-c1c[nH]c2c(NC(=O)CN3CC[C@H](Oc4ccnc(NCc5ccccc5)n4)C3)cccc12       pIC50        > 8.00
19  Cc1cnc(Nc2cc(C)n(C)n2)nc1-c1c[nH]c2c(NC(=O)CN3CC[C@H](Oc4cc(N)[nH]n4)C3)cccc12       pIC50  7.00 to 8.00
20  Cc1cnc(Nc2cc(C)n(C)n2)nc1-c1c[nH]c2c(N3Cc4c(Br)cccc4C3=O)cccc12       pIC50        > 8.00
21  Cc1cnc(Nc2cc(C)n(C)n2)nc1-c1c[nH]c2c(N3Cc4c(NC(=O)C5CCC(=O)CC5)cccc4C3=O)cccc12       pIC50        > 8.00
22  Cc1cnc(Nc2cc(C)n(C)n2)nc1-c1c[nH]c2c(N3Cc4c(NS(C)(=O)=O)cccc4C3=O)cccc12       pIC50        > 8.00
23  Cc1cnc(Nc2cc(C)n(C)n2)nc1-c1c[nH]c2c(NC(=O)CN3CC[C@H](Oc4cnc(N(C)C)nc4)C3)cccc12       pIC50  7.00 to 8.00
24  Cc1cnc(Nc2cc(C)n(C)n2)nc1-c1c[nH]c2c(N3Cc4c(cccc4-c4cnc(N5CCNCC5)nc4)C3=O)cccc12       pIC50        > 8.00
25  Cc1cnc(Nc2cc(C)n(C)n2)nc1-c1c[nH]c2c(N3Cc4c(NC(=O)c5cnco5)cccc4C3=O)cccc12       pIC50        > 8.00
26  CCN(CC)c1cccc(O[C@H]2CCN(CC(=O)Nc3cccc4c(-c5nc(Nc6cc(C)n(C)n6)ncc5C)c[nH]c34)C2)c1       pIC50  6.00 to 7.00
